assay-system: S. pyogenes SKKanGAS, kanamycin survival, BacTiterGlo, 6 h
test-method-notes: S. pyogenes SKKanGAS kanamycin growth inhibitors – SKKanGAS strain, luminescence, dose confirmation, streptokinase promoter inhibitor project, dose response (AID 1902);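 further: lower survival reflects blocked streptokinase promoter driving kanamycin resistance gene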
Calls of active or inactive are those of the source.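 How the source made its calls: active means EC50 no more than a set limit of log units above the highest dose; inactive means the rest.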
Possible outcomes: active, inactive

>>> group_label("CCc1nnc(NS(=O)(=O)c2ccc(NCc3cc(Cl)cc(Cl)c3O)cc2)s1")
"active"
>>> group_label("CCCCCCCN1N=C(C)C(C(=O)c2ccccc2)C1=O (stereo not drawn)")
"active"
>>> group_label("Cc1csc2c(N3CCN(C(=O)Nc4ccc(Cl)c(Cl)c4)CC3)ncnc12")
"active"
>>> group_label("COc1ccc(S(=O)(=O)NCC2CCCN(Cc3ccc(OC)cc3F)C2)cc1 (stereo not drawn)")
"inactive"
>>> group_label("COc1ccc(/C=C/C(=O)NC(=S)NNC(=O)[C@H]2C[C@@H]2c2ccccc2)cc1OC")
"active"
>>> group_label("O=C(Nc1nnc(-c2ccc(Br)cc2)o1)c1ccco1")
"active"
>>> group_label("c1ccc(-c2noc(-c3ccccc3-c3ccccc3)n2)cc1")
"active"
>>> group_label("O=C(/C=C/c1c[nH]c2ccccc12)c1c(O)n(CCc2ccccc2)c(=O)[nH]c1=O")
"active"
>>> group_label("COc1ccc(/C=C2\\Sc3ccc(C(=O)N4CCCC4)cc3N(C)C2=O)cc1OC")
"active"
>>> group_label("Cc1cc(-c2csc3nc[nH]c(=S)c23)cc(C)c1C")
"active"
>>> group_label("CCCCn1c(NS(=O)(=O)c2ccccc2)c(S(=O)(=O)c2ccc(C)cc2)c2nc3ccccc3nc21")
"active"
>>> group_label("Oc1c(C(Nc2cccc(C(F)(F)F)c2)c2cccnc2)ccc2cccnc12 (stereo not drawn)")
"active"
>>> group_label("CC(Oc1ccc(Cl)cc1Cl)C(=O)Nc1ccc2oc(-c3ccncc3)nc2c1 (stereo not drawn)")
"active"
>>> group_label("O=C(Nc1ccccc1Sc1ccccc1)c1ccccc1F")
"active"
>>> group_label("O=C(NC(=S)N1CCN(c2nc(-c3ccccc3)cs2)CC1)c1cccnc1")
"active"
>>> group_label("Cc1ccccc1NC(=O)NCCCCc1ccccc1")
"inactive"
>>> group_label("O=C(N/N=C/c1cc(O)ccc1Br)c1cccnc1")
"active"
>>> group_label("S=c1[nH]nc(C2CCCCC2)n1/N=C/c1cccc(Cl)c1Cl")
"active"
>>> group_label("Cc1[nH]n2c(=O)cc(C(C)(C)C)nc2c1-c1ccccc1")
"active"
>>> group_label("Cc1ccc(CNC(=S)Nc2ccc(NS(=O)(=O)c3ccc(C)cc3)cc2)cc1")
"active"
>>> group_label("Cc1cccc2sc(NNC(=O)c3cc(-c4cccs4)nc4ccccc34)nc12")
"active"
>>> group_label("CCc1ccccc1OCC(=O)Nc1nc(-c2cccnc2)cs1")
"active"
>>> group_label("O=C(Nc1nnc(SCc2ccc(F)cc2)s1)c1ccccn1")
"active"

* * *

The entries below come with measured pEC50 values attached.
assay-system: S. pyogenes SKKanGAS, kanamycin survival, BacTiterGlo, 6 h
test-method-notes: S. pyogenes SKKanGAS kanamycin growth inhibitors – SKKanGAS strain, luminescence, dose confirmation, streptokinase promoter inhibitor project, dose response (AID 1902)
pEC50: −log10 of the molar value.
quantity-measured: pEC50

>>> measured_number("Oc1ccccc1N=Nc1nc(-c2ccccc2)c(-c2ccccc2)[nH]1")
6.52
>>> measured_number("CNC[C@H](Cc1ccccc1)NC[C@@H](Cc1cccc2ccccc12)NCCc1ccc(C)cc1")
5.37
>>> measured_number("Cc1conc1NC(c1cccs1)c1ccc2cccnc2c1O (stereo not given)")
5.91
>>> measured_number("O=C(NNC(=O)c1cc(-c2ccccc2)nc2ccccc12)Nc1cccc(Cl)c1")
5.41
>>> measured_number("Cc1cccc(NC2=NC(C)(C)N=C(N)N2)c1")
6.96
>>> measured_number("OC(COc1cccc2ccccc12)CN1CCN(c2ccc(Cl)cc2)CC1 (stereo not given)")
4.81
>>> measured_number("CC(C)NC(=O)NC(=O)CSc1nnc(COc2ccccc2F)n1C(C)C1CC2CCC1C2 (stereo not given)")
5.18
>>> measured_number("Nc1nonc1-c1nc2ccccc2n1CC(=O)N/N=C/c1ccc(-c2cccc(C(=O)O)c2)o1")
5.52
>>> measured_number("Cc1nn(Cc2ccc(Cl)cc2Cl)c(C)c1NC(=O)NC12CC3CC(CC(C3)C1)C2")
4.85
>>> measured_number("O=[N+]([O-])c1ccc(S(=O)(=O)Nc2ccc(-c3csc(-c4ccccc4)n3)cc2)cc1")
5.55

* * *

assay-system: S. pyogenes SKKanGAS, kanamycin survival, BacTiterGlo, 6 h
test-method-notes: S. pyogenes SKKanGAS kanamycin growth inhibitors – SKKanGAS strain, luminescence, dose confirmation, streptokinase promoter inhibitor project, dose response (AID 1902)
Calls of active or inactive are those of the source.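 How the source made its calls: active means EC50 no more than a set limit of log units above the highest dose; inactive means the rest.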
Possible outcomes: 1 for active, 0 for inactive

>>> group_label("COc1ccc(C(=O)NC(=S)NNC(=O)[C@H]2C[C@@H]2c2ccccc2)cc1OC")
1
>>> group_label("O=[N+]([O-])c1cc(S(=O)(=O)Nc2cccc(Cl)c2)ccc1N=Nc1c(O)[nH]c2ccccc12")
1
>>> group_label("Cc1cccc(N=C2NN=C(c3c(C)[nH]c4ccccc34)CS2)c1")
1
>>> group_label("CSc1cccc(-c2nnc(NC(=O)c3cccc(N4C(=O)CCC4=O)c3)o2)c1")
1
>>> group_label("COc1ccc(C(=O)NCC(=O)OCC(=O)N2N=C(c3ccc(Cl)cc3)CC2c2ccco2)cc1OC (stereo not given)")
1
>>> group_label("Nc1nc(N)c(C=Nc2ccc(Br)cc2)c(Nc2ccc(Br)cc2)n1")
1
>>> group_label("CC(C)=CCc1c(O)cc2oc3c(CC=C(C)C)c(O)c(O)c(CC=C(C)C)c3c(=O)c2c1O")
1
>>> group_label("COC(C(=O)Nc1ccnn1C1CCN(Cc2nccs2)CC1)c1ccccc1 (stereo not given)")
0
>>> group_label("CCCCCCCC(=O)NNC(=O)c1c(O)c2ccccc2n(CC)c1=O")
1
>>> group_label("OCCCCC#Cc1c(-c2ccsc2)sc2ccccc12")
1

* * *

assay-system: S. pyogenes SKKanGAS, kanamycin survival, BacTiterGlo, 6 h
test-method-notes: S. pyogenes SKKanGAS kanamycin growth inhibitors – SKKanGAS strain, luminescence, dose confirmation, streptokinase promoter inhibitor project, dose response (AID 1902);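 further: lower survival reflects blocked streptokinase promoter driving kanamycin resistance gene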
pEC50: −log10 of the molar value.
The entries below come with measured pEC50 values attached.
quantity-measured: pEC50

>>> measured_number("O=C(OCc1ccc(-c2ccccc2)cc1)c1cccc(O)c1")
5.20
>>> measured_number("COc1ccc(NC(C)C(=O)N/N=C/c2c(O)ccc3ccccc23)cc1 (stereo not given)")
5.94
>>> measured_number("CCCCNc1c(-c2ccc(SC(C)CC)c(OC)c2)nc2ccc(C)cn12 (stereo not given)")
5.46
>>> measured_number("CC1CC(C)CN(S(=O)(=O)c2ccc(C(=O)Nc3nnc(C4CC4)o3)cc2)C1 (stereo not given)")
5.99
>>> measured_number("CCOc1c(OC(C)=O)ccc(/C=C/c2ccc3cccc(OC(C)=O)c3n2)c1[N+](=O)[O-]")
5.80

* * *

assay-system: S. pyogenes SKKanGAS, kanamycin survival, BacTiterGlo, 6 h
test-method-notes: S. pyogenes SKKanGAS kanamycin growth inhibitors – SKKanGAS strain, luminescence, dose confirmation, streptokinase promoter inhibitor project, dose response (AID 1902);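 further: lower survival reflects blocked streptokinase promoter driving kanamycin resistance gene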
Active and inactive are the calls of the source.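 How the source made its calls: active means EC50 no more than a set limit of log units above the highest dose; inactive means the rest.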
Possible outcomes: label 1 for active, label 0 for inactive

>>> group_label("CC1CCC(C(=O)c2c(O)c3ccccc3oc2=O)CC1 (stereo not given)")
"label 1"
>>> group_label("Cc1cc(C(=O)OC(C(=O)Nc2cccc(C(F)(F)F)c2)c2ccccc2)c(C)o1 (stereo not given)")
"label 1"
>>> group_label("Clc1ccc2c(N/N=C/c3cccc(Br)c3)ccnc2c1")
"label 1"
>>> group_label("Cn1c(N)c(C(=O)COC(=O)CCc2c[nH]c3ccccc23)c(=O)n(C)c1=O")
"label 1"
>>> group_label("O=S(=O)(c1ccc(F)cc1)c1nc(-c2ccccc2)oc1N1CCOCC1")
"label 0"
>>> group_label("Cc1ccc(C(=O)NC(=S)N(C)C2CCCCC2)cc1Br")
"label 1"
>>> group_label("CC1(C)S[C@@H]2[C@H](NC(=O)COc3ccccc3)C(=O)N2C1C(=O)OCC1CCCCC1 (stereo not given in full)")
"label 1"
>>> group_label("Clc1ccc(-c2csc(Nc3ccccc3)[n+]2Cc2ccco2)c(Cl)c1")
"label 1"
>>> group_label("O=C(Nc1nnc(-c2ccco2)o1)c1ccc(Cl)s1")
"label 1"
>>> group_label("O=[N+]([O-])c1cc(C(F)(F)F)cc([N+](=O)[O-])c1NCCNC(=S)Nc1ccc(Cl)c(Cl)c1")
"label 1"

* * *

assay-system: S. pyogenes SKKanGAS, kanamycin survival, BacTiterGlo, 6 h
test-method-notes: S. pyogenes SKKanGAS kanamycin growth inhibitors – SKKanGAS strain, luminescence, dose confirmation, streptokinase promoter inhibitor project, dose response (AID 1902);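 further: lower survival reflects blocked streptokinase promoter driving kanamycin resistance gene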
pEC50: −log10 of the molar value.
quantity-measured: pEC50

>>> measured_number("S=C(NCc1cccs1)Nc1cc(Cl)cc(Cl)c1")
5.14
>>> measured_number("CC(C)CCC(CCNCc1ccccn1)c1ccc(Cl)cc1 (stereo not given)")
4.88
>>> measured_number("C[C@@H](O)[C@H]1C(=O)N2C(C(=O)O)=C(S[C@@H]3CN[C@H](C(=O)N(C)C)C3)[C@H](C)[C@H]12")
6.90
>>> measured_number("CCOC(=O)C(=NC(C)(C)C)NNc1cc(Cl)ccc1Cl")
5.54
>>> measured_number("C=C1c2cccc(O)c2C(O)=C2C(=O)[C@]3(O)C(O)=C(C(N)=O)C(=O)[C@@H](N(C)C)[C@@H]3[C@@H](O)[C@H]12")
7.03
>>> measured_number("CCOC(=O)c1csc(Nc2nc3ccc(F)cc3s2)n1")
5.49
>>> measured_number("COc1cccc(-c2cc(C(F)(F)F)nc(N3CCC(C)CC3)n2)c1")
5.15
>>> measured_number("Cc1cc(=O)[nH]c(SCC(=O)Nc2ccc(Br)cc2)c1C#N")
5.01
>>> measured_number("Cc1ccccc1OCC(=O)NNC(=S)NC(=O)c1ccco1")
6.47
>>> measured_number("Cc1c(C(=O)N/N=C/c2ccc(Cl)cc2)[nH]c2ccc(Cl)cc12")
5.57
